# target_desc: PACAP-R3 (Homo sapiens, UniProt P41587)
# Sequence (P41587 24-438): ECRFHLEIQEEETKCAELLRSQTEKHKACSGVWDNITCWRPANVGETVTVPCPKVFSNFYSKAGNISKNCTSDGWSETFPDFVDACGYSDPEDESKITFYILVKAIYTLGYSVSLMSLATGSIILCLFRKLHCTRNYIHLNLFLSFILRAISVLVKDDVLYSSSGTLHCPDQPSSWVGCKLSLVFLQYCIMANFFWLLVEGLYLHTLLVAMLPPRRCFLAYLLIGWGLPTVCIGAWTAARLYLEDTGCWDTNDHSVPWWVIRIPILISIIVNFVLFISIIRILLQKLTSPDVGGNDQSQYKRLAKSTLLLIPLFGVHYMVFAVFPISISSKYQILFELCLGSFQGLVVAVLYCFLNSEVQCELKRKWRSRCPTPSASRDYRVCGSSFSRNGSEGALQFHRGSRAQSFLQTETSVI
# test_method_notes: Cyclic AMP SPA on CHO cells expressing PACAP R3
# Assay type: cell-based
# Set-up: expressed in transfected cells; host or cells: CHO cells (Geneticin selection)
# condition_description: ratio of EC50 at R2 versus EC50 at R3
No end group written: not given here.
The threshold is inclusive: R3 Selectivity of exactly 100 counts as Yes; values below receive No.

| substance | group_label |
| --- | --- |
| HSDAVFTDNYTRLRKQMAHKKYLNSIKNKR [Peptide R3P102] | No |
| HSDAVFTENYTKLRKQLAAKKYLNDLLNGGT [Peptide R3P10] | No |
| HSDGIFTDSYSRYRKQMAVKKYLAKVL-NH2 [PAC25] | No |
| HSDGIFTDSYSRYREQMAVKKYLAAVL-NH2 [PAC15] | No |
| H-HSDAVFTDNYTRLRKQMAAKKYLNSIQNKR [Peptide R3P127] | Yes |
